- Study target: Cystic fibrosis transmembrane conductance regulator (Homo sapiens)
- Sequence (P13569 whole entry): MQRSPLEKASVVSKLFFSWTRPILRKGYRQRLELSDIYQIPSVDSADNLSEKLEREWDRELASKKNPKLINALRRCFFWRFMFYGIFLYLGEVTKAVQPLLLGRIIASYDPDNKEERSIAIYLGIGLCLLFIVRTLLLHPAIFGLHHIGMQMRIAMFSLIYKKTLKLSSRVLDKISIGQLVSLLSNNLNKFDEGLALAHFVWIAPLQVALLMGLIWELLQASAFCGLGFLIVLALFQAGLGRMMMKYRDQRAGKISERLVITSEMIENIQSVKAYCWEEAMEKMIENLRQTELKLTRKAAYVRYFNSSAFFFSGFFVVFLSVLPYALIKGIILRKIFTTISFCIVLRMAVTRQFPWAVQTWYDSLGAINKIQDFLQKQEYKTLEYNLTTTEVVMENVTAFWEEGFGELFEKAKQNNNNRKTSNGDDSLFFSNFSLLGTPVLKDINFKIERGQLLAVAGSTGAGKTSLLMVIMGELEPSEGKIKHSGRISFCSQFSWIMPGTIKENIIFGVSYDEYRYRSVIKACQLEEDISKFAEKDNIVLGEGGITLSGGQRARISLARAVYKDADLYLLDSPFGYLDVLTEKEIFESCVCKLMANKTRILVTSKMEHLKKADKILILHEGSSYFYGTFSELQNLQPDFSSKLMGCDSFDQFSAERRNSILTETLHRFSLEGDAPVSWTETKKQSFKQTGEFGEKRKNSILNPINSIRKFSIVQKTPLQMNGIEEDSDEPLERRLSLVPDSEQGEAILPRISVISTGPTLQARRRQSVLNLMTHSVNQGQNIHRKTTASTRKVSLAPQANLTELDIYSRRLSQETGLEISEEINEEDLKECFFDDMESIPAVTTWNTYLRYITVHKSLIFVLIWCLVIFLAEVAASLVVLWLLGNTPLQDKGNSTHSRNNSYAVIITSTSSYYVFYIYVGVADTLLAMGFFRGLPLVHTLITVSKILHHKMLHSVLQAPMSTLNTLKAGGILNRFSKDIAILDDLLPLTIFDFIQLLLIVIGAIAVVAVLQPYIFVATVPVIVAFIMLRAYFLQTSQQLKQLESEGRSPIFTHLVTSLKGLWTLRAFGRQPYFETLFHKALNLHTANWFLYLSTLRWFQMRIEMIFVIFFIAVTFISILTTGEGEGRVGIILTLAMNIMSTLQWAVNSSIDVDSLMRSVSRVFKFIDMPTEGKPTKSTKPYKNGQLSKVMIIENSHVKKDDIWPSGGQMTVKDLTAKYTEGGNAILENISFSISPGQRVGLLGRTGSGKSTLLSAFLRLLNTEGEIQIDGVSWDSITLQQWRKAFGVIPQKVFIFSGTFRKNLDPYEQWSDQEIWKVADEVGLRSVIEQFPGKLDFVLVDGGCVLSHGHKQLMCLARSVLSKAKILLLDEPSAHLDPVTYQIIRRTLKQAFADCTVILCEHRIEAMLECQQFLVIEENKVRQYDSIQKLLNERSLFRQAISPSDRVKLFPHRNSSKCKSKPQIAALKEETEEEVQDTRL
- Run description: Inhibition of CFTR-mediated forskolin-induced chloride secretion in human T84 cells after 15 mins by short-circuit current analysis

| Chemical smiles | IC50 |
| --- | --- |
| CCCCCCCCC[C@@H]1C[C@H](O)[C@H]2C[N@]1O[C@@H]2c1ccccc1 | 58.6 µM |
